# experiment description: protease stability score; higher = more stable; yeast display proteolysis, trypsin and chymotrypsin;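 further: relative to predicted unfolded state with 0 unfolded-like and 1 meaning tenfold more protease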
outcome measure: protease stability score

seq: SEEDEMSKRFLDDLLHNLRTGDFDRLKNELDPHAKLVVDGQELHGMELASKRDLEMRVNHLEIRHVEIQGEWIHLKGEMDGEVNGKRNIHEVHVLLFKINGRWYVREVWIR
outcome measure: protease stability score
test value: 1.41
--
seq: DEEEEMAHRLVEQHDEFIRTGDERINHELADPHAKVEIGDKEFIGRETFSKLMVEWRTREIRLTHIEVINGQVHLYQDVRVDYNGKEMHQHVRWDSLKINGKWFDHSVHIK
outcome measure: protease stability score
test value: 0.317
--
seq: SEHEEIMHKALLFLIYVLLTGDEEILHELLDPNARLDVNGREKHGREDWVQLKRELIHKIKNVRIELHDMKVIGDFLISDQRHDYDGREYKMDVFAFKVDGQWKVREEKLD
outcome measure: protease stability score
test value: 1.44

====

# experiment description: protease stability score; higher = more stable; yeast display proteolysis, trypsin and chymotrypsin;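 further: relative to predicted unfolded state with 0 unfolded-like and 1 meaning tenfold more protease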

seq: DETREEVYEMAVRILENEITGDWKKLYDLVDPDTRLDINGRHVIGREEMIKLFEWWLKHIRIKEIRLSHVEAVNGKADLKSNVHGTIDGVEHDVRRTIHIDIVDGRVKRIEVRTR
protease stability score: 1.29
--
seq: SEEKKLYDLAWELLLQSEKTGNEEIFERLADPHVRSHINGVDYIGRERFSELAHEINRELRIEDIHLHDVDLQGDKVNMSGSLTGHVNGKRHEYTMKIHFEKINGRWIIRSVSWE
protease stability score: 1.39
--
seq: DRHDKELERFTSDWLTSWHTGDFHRILELLDPDVRYIYGDKEWHGRENVHRAIKELLERLGIDHLHLQRVEIQGEKFKIQTQVHVGDKTINLIIHILVVDGRVREVNMDEK
protease stability score: 1.33
--
seq: DEEEKRWRHMTHLFWHIEKTGNEDRLSKLADPDVRLNINGVHAHGREEVISVLREFQERYKNLTIHIKDIKVFDGVVFIDGEDHFDGVTVKSLVIIFIVNGRIKEIEHRRE
protease stability score: 1.62
--
seq: HEEKELVNRSVELSYRVLKTGDEHTLEELLDPDAKTRLNINGKNEKLVGRENVLHIVTWFLDFLGIKHVELRDVRYVGDKVHIDMQIDVNGRHSRWHLIAEKIDGRWFMHSIQVEVH
protease stability score: 0.18
--
seq: DEEEKKAQEFLEFVMSALETGDEETLKRLMDPRVRLRFDGRDIHGREEVLRVWIEVLKRADHVRVEIRDMEFQGDKLHIHFELILHIGDKENHIEIRQNVFKVDGQWIIKEHEIR
protease stability score: 2.22
--
seq: DDNEELTERFMKHLIRAQQTGDWERLKELFDPNTRLIVGEKHVVGREHFINEWLEHHNKLGIDHSQIELHNLRIINGKAHIDGHFIEEFNGKRIEIRIEVVIVKINGRWLIKEIHFI
protease stability score: 1.44
--
seq: DEEDEERTWAWEIFVKIIRTGDEQKLHEMADPHVRLHVGDKHEHGREELVKFFIDYILSLGVDHIEVHLKREDRINGRIHIDSKLRIEVGDKEITNNTHVLFLKVDGKWILKQVEIK
protease stability score: -0.11
--
seq: DELEQLAREVWETLRRAELTGDENRIHEMLDPNVRVDINGRESHGWDSFIYLLRELRFEDMHERDYRIRDVNGRLEITVTGDLEGEFNGKHFNRHTVIIIILEKYDGRWKVHEVKIELR
protease stability score: 2.19
--
seq: DEEDKMVRVLVELWVENFITGDEEKLYELMDPDTRLEIDGVENHGMEKAIEFLERHREHYGVDHIHLIIHEVKHQGNKAHIDGILEFRQGDKQIELHWELHFEVVNGRMKEVHVNTR
protease stability score: 2.29
--
seq: SEEQEEMRKLLKEFWHHTQTGDEDSFKRLADPDVKLRIDGKNYHGREATEFFTRRFDVIHDLRIHHMTIQGDWVRLEGTMHIEVGNYHDTKDVRIIILKYNGRWVNHEVRIH
protease stability score: 0.741
--
seq: DEDRRDAEYARDIWTETLETGDEDLLHELMDPHVRIEIGDKETHGRENYVKKFIRMGVRLKHRNDKHVTIVNGRVHLFGEFHVIINGRHHDLRVEIVIEKVNGRWVVKSIHVH
protease stability score: 0.688
--
seq: SEEEFFTEMALRIYIELFETGDEHLIERLADPNVIIDFNGREFIGREYFSRIFHFLRRHWRMRDVTLKDWRVFDGRLHMEVQLYGKVNGQETQRDTHLVSTKINGRWRIHSDKWD
protease stability score: 1.25
--
seq: SEEERLLHEFWERLQHSHKTGNEEEYRKNIDPHARLDIDGREMHGWENFFHFFVEMRVHDLRIEDYRVQGDKVIVHTRVDGIVNGVRTEIHSELIIRKIDGRWFIEAMTIK
protease stability score: 1.07
--
seq: DEERRRDEEDWRFLEHVWETGDFDALVNMIDPNVRIEFEGRTHHGREDASHLIKRLGVKYFEVKSQNIQGDYIIDDVEFRVGEYRTRVRIIIHKIDGKWYIHSLHIL
protease stability score: 0.913
--
seq: TEHDHDTERAFKEWFDVVRTGDFHRLERMLDPNVLSRIDGKLIHGRERLLKFWQEYLEHLGANHHEIHHVDIQGDKINIDIRVEYGDKRFTVHVHASKINGQWRVHENEKQ
protease stability score: 1.02
--
seq: DHEKENIERSSRIMLRLYETGDEDELRKLADPHARSEVGEFEYHGREEVFRWLNLLIRELGAKHITIRDIKYVGNKLTLHMISHVDGRELNLEIWAIKIDGQWLLTTVHHK
protease stability score: 0.69
--
seq: SEEENISKHLADLMFRAIFTGDWQELSRLLDPNARLRVDGVIHHGRETSVEFLERMFRTLGIDHYRVRHVNVQGEKVDIHSEVEYDGRKIDTKIHLVVVNGKVKSVDVRVD
protease stability score: 1.97
--
seq: TEEEEHWKHLVELWLRAVETGDEHLLHRLLDPHVKIDYNGKELHGRETHIKIERHFRERYKGLRWEIKHHEIQGDKAHVDFLLNVNGREHRVRIEIIIVNGRVHQIHFDIN
protease stability score: 2.23
--
seq: DHEERNIEDFLRELLHSLITGDEHTYRRLMDPNMQLFVDGRTFVGWKEALKWYQEILRRIDVIENIEIEQFSVFDGRVFVRVHLHMRVGDKTHHSFVHILLVKINGKWRLEEHEVV
protease stability score: 1.79
--
seq: DEDEKRWFDRADEVRRQWETGDFERHLRLMDPHVRMEVQQGDKHEEYHGRENVMEIIRQELERVKNVKLEVTDLEIQGEKVILRLKLHVNGRDIDIYIDIVFINGRIKHIRIRIQER
protease stability score: 1.38
--
seq: SEDHEFSEHALREFIHVLMTGDERSLLKLMDPHTQLIFNGKEIHGMEEIIRIWSEHVKRFGFNHIDHVHIHHVEIQGDKIRIDGTTRGLVNGREHTHRTHLIAIKYNGKWIIHNIKID
protease stability score: 1.9
